Data origin: ChEMBL document CHEMBL4229565

Assay: Intrinsic clearance in CD1 mouse liver microsomes at 1 uM measured up to 30 mins by UPLC-MS/MS method
Type: ADME, microsome
Details: 0.5 h
measured_endpoint: CLH (mL/min/g)
Dear colleague, please return just the value in mL/min/g, with no unit written.

Answered cases to consult:
CC(C)Cc1ccc2nn(C)cc2c1NS(=O)(=O)c1ccc(CCCCN2CCN3CCC[C@@H]3C2)cc1: 3.7
CC(C)Cc1ccc2nn(C)cc2c1NS(=O)(=O)c1ccc(CCCO[C@@H]2C[C@H]3CC[C@@H](C2)N3C)cc1: 1.4
CC(C)Cc1ccc2nn(C)cc2c1NS(=O)(=O)c1ccc(CCCOC[C@@H]2CCCN2C)cc1: 3.7
O=S(=O)(Nc1c(C2CCCCC2)ccc2ncccc12)c1ccc(Br)cc1: 38
CC(C)Cc1ccc2ncccc2c1NS(=O)(=O)c1ccc(CCCCC2CCNCC2)cc1: 1.5

The compound CC(C)Cc1ccc2ncccc2c1NS(=O)(=O)c1ccc(CCCN2CCN(C)CC2)cc1 showed CLH equal to 2.3

The compound CC(C)Cc1ccc2nn(C)cc2c1NS(=O)(=O)c1ccc(CCCOC[C@@H]2CN(C)CCO2)cc1 showed CLH equal to 24
